assay_target: T1, IL-10R1-Fc (UniProt Q13651 22-235, limits assumed)
T1 sequence (looked up): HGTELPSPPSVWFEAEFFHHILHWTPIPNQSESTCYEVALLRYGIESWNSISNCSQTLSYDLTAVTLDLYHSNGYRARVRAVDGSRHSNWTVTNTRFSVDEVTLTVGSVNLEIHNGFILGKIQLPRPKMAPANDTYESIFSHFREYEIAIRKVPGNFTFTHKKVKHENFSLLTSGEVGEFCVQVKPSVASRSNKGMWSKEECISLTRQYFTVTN
assay_comment: ELISA, IL-10R1-Fc coated
Give measured Binding recovery (>60%) for each item. Keep answers brief.
Numbers only here, please. The scale is %.

Data request: Query: Binding recovery (>60%); subject: IL-10 Lys157Cys-R4-7 (ligand, human, UniProt P22301 19-178, looked up, R4-7 on Cys 157, mature) SPGQGTQSENSCTHFPGNLPNMLRDLRDAFSRVKTFFQMKDQLDNLLLKESLLEDFKGYLGCQALSEMIQFYLEEVMPQAENQDPDIKAHVNSLGENLKTLRLRLRRCHRFLPCENKSKAVEQVKNAFNKLQEKGIYKAMSEFDIFINYIEAYMTMCIRN
Data returned: 98.6

Data request: Query: Binding recovery (>60%); subject: IL-10 Ser11Cys-R4-7 (ligand, human, UniProt P22301 19-178, looked up, R4-7 on Cys 11, mature) SPGQGTQSENCCTHFPGNLPNMLRDLRDAFSRVKTFFQMKDQLDNLLLKESLLEDFKGYLGCQALSEMIQFYLEEVMPQAENQDPDIKAHVNSLGENLKTLRLRLRRCHRFLPCENKSKAVEQVKNAFNKLQEKGIYKAMSEFDIFINYIEAYMTMKIRN
Data returned: 133

Data request: Query: Binding recovery (>60%); subject: IL-10 Asn18Cys-R4-18 (ligand, human, UniProt P22301 19-178, looked up, R4-18 on Cys 18, mature) SPGQGTQSENSCTHFPGCLPNMLRDLRDAFSRVKTFFQMKDQLDNLLLKESLLEDFKGYLGCQALSEMIQFYLEEVMPQAENQDPDIKAHVNSLGENLKTLRLRLRRCHRFLPCENKSKAVEQVKNAFNKLQEKGIYKAMSEFDIFINYIEAYMTMKIRN
Data returned: 92.3

Cited source for all entries: patent US20230158141A1
